- Test system: HOP-92 NSCLC
- method notes: NCI tumour cell line growth inhibition, 48 h
Reported TGI by item:

compound | target under test | TGI
CC(=O)Nc1nc2ncc(C=O)nc2c(=O)[nH]1 | HOP-92 NSCLC | > 100 µM
N#CC1(Cc2ccccc2)CCCCN1C(=O)c1ccccc1 (stereo not drawn) | HOP-92 NSCLC | > 100 µM
CN(C)C(=O)N(CCCl)N=O | HOP-92 NSCLC | > 100 µM

====

- Test system: 786-0 renal
- method notes: NCI tumour cell line growth inhibition, 48 h
Each entry below lists one item and its recorded TGI value.
readout label: TGI

compound | result
O=C(/C=C/c1ccccc1F)c1ccc([N+](=O)[O-])cc1 | > 100 µM
CN(C)CCOc1ccc2[nH]c(C(=O)N3CC(CCl)c4c3cc(NC(=O)OCc3ccc([N+](=O)[O-])cc3)c3ccccc43)cc2c1 (stereo unspecified) | 2.09 µM
O=C(O)c1ccc(Cc2ccccc2C(=O)O)cc1 | > 100 µM
O=C(O)/C=C/C=C/c1ccc2c(c1)OCO2 | > 100 µM
CN[C@H](C)[C@@H](OC)c1ccccc1 | > 100 µM
C=C1C(=O)OC2C1C(=O)C/C(C)=C/CCC1(C)OC21 (stereo unspecified) | 31.8 µM
COc1ccc(O)c2c(=O)c3c(OC)cc4c(c3oc12)[C@@H]1C=CO[C@@H]1O4 | > 60.5 µM
Cc1[nH]c2ccccc2c1-c1n[nH]c(=O)c2ccccc12 | > 100 µM
CN(C)C(=S)OC(Cn1cncn1)c1ccc(Cl)cc1Cl (stereo unspecified) | > 100 µM
CCN(CC)CCOc1cccc2nc3c(cc12)Cn1c-3cc2c(c1=O)COC(=O)C2(O)CC (stereo unspecified) | 11.7 µM
CC(C)=CCC/C(C)=C/CCC(C(=O)COCc1ccccc1)P1(=O)OC(C)(C)CN1C(C)(C)C (stereo unspecified) | > 100 µM
CC=C(CBr)CCC(Br)C(C)(C)Cl (mixture of isomers) | > 10 µM
COc1ccc(N2C(=O)/C(=C/c3ccc(N(CCC#N)CCC#N)cc3C)N=C2/C=C\c2ccccc2)cc1 | > 100 µM
C=C(C)c1ccccc1 (tested in a mixture with another compound) | > 100 µM
NC(=Nc1ccc(S(=O)(=O)Nc2cnc3ccccc3n2)cc1)/N=C(/N)Nc1ccc(Br)cc1 | > 100 µM
Cc1ncc(-c2nnnn2-c2ccccc2)c(C(=O)O)n1 | > 100 µM
COc1ccc(C(=O)/C=C/c2c(OC)cc(OC)cc2OC)c(OC)c1 | > 100 µM
O=c1[nH]c2nc3ccccc3n2c(O)c1-c1ccccc1 | > 100 µM
C[C@@H](c1ccccc1)N1CN(C(=O)OCc2ccccc2)C(CO)C1=O (stereo partly specified) | > 100 µM
CS(=O)(=O)Nc1ccc(Nc2c3ccccc3nc3cc([N+](=O)[O-])ccc23)cc1 | 10.6 µM
c1ccc2nc3c(cc2c1)Sc1cc2ccccc2[n+]2c1N3CC2 | > 100 µM
CC(=O)Nc1nc2ncc(C=O)nc2c(=O)[nH]1 | > 100 µM
COc1ccc2c(c1)OCC1Cc3cc4c(cc3OC21)OCO4 (stereo unspecified) | > 100 µM
COC1C(O)CC(OC2CC(OC3CC(O[C@@H]4C(=O)c5c(cc6cc(OC7CC(OC8CC(O)C(O)C(C)O8)C(O)C(C)O7)c(C)c(O)c6c5O)CC4[C@H](OC)C(=O)C(C)=O)OC(C)C3O)OC(C)C2O)OC1C (stereo partly specified) | > 33.3 µM
CSc1nc2c(nc(N)n2C2OC(CO)C(O)C(O)C2O)c(=O)n1C (stereo unspecified) | > 100 µM
Cc1ccc(/C=C2\COc3ccc(O)c(O)c3C2=O)cc1 | 2.49 µM
O=CC12c3ccccc3C(c3ccccc31)C1C(=O)NC(=O)C12 (stereo unspecified) | > 100 µM
O=C(CNC(=O)c1ccccc1)Oc1c(Cl)c(Cl)c(Cl)c(Cl)c1Cl | > 100 µM
Nc1cc(C(=O)NC2C3CC4CC(C3)CC2C4)[nH]c(=S)n1 (stereo unspecified) | > 100 µM
CC(C)CC(NC(=O)C(CSc1ccc([N+](=O)[O-])cc1)Cc1ccccc1)C(=O)Nc1ccccc1 (stereo unspecified) | > 100 µM
Cc1cc(-c2ccc[nH]2)on1 | > 100 µM
